- system: human OX1R (Homo sapiens)
- Construct: expressed in transfected cells; host or cells: CHO (Chinese hamster ovary) cells, line CHOOX1R, co-expressing NFAT-luciferase
- test_method_notes: Agonist activity against OX1R: intracellular calcium (Fura-2AM, FDSS7000) in CHOOX1R cells
- Assay type: cell-based
- assay_conditions: test compound 1.0 μM; relative to orexin-A as full agonist (100%)
- Procedure: Evaluation of Agonist Activity Against OX1R and OX2R […] (As used herein, Response in Table 21 to Table 27 is a value obtained by dividing the agonist activity value, when the test compound is evaluated with orexin-A as a full-agonist (maximum value of agonist activity: 100%), at 10 μM, 1.0 μM, 0.1 μM by the agonist activity value of orexin-A.)
Entries and their Response (%) OX1R values follow.
readout_label: Response (%) OX1R

[
  {
    "molecule": "CCN(Cc1ccccc1)C(=O)c1ccc(OC)c(S(=O)(=O)Nc2cccc(NC(=O)Nc3ccc(N(C)C)cc3)c2)c1 [Example 110]",
    "readout_label": "Response (%) OX1R",
    "measure_unit": "%",
    "op": "<",
    "experimental_value": 5
  },
  {
    "molecule": "COc1ccc(-c2cccc(C(=O)N(C)C)c2)cc1S(=O)(=O)Nc1cccc(N2CCCN(c3ccccc3N(C)C)C2=O)c1 [Example 133]",
    "readout_label": "Response (%) OX1R",
    "measure_unit": "%",
    "op": "=",
    "experimental_value": 86
  },
  {
    "molecule": "COc1ccc(-c2cccc(C(=O)N(C)C)c2)cc1S(=O)(=O)Nc1cccc(N2CCCCN(c3cccc(N(C)C)c3)C2=O)c1 [Example 136]",
    "readout_label": "Response (%) OX1R",
    "measure_unit": "%",
    "op": "=",
    "experimental_value": 78
  }
]

* * *

- system: human OX1R (Homo sapiens)
- Construct: expressed in transfected cells; host or cells: CHO (Chinese hamster ovary) cells, line CHOOX1R, co-expressing NFAT-luciferase
- Sequence (O43613 1-425): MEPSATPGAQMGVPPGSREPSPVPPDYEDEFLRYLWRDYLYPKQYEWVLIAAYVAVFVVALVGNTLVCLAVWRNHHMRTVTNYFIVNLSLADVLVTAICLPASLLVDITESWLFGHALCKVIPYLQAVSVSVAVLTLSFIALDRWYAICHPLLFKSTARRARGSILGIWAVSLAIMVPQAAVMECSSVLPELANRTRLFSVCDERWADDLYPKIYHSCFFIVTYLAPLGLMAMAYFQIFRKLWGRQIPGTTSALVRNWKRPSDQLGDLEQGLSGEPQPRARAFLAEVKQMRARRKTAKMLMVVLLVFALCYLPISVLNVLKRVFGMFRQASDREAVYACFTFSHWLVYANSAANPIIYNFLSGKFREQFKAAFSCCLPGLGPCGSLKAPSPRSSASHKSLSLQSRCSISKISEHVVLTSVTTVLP
- test_method_notes: Agonist activity against OX1R: intracellular calcium (Fura-2AM, FDSS7000) in CHOOX1R cells
- Format: cell-based
- assay_conditions: 1.0 μM test compound; relative to orexin-A as full agonist (100%)
Entries and their Response (%) OX1R values follow.

[
  {
    "molecule": "COc1ccc(-c2cccc(C(=O)N(C)C)c2)cc1S(=O)(=O)Nc1cccc(NC(=O)Nc2cccc(NC(=NC(=O)OC(C)(C)C)NC(=O)OC(C)(C)C)c2)c1 [Example 64]",
    "Response (%) OX1R": "<5%"
  },
  {
    "molecule": "COc1ccc(-c2cccc(C(=O)N(C)C)c2)cc1S(=O)(=O)Nc1cccc(NC(=O)Nc2ccccc2Br)c1 [Example 43]",
    "Response (%) OX1R": "<5%"
  },
  {
    "molecule": "COc1ccc(-c2cccc(C(=O)N(C)C)c2)cc1S(=O)(=O)Nc1cccc(NC(=O)Nc2ccc([N+](=O)[O-])cc2)c1 [Example 61]",
    "Response (%) OX1R": "<5%"
  },
  {
    "molecule": "COc1ccc(-c2cccc(C(=O)N(C)C)c2)cc1S(=O)(=O)Nc1cccc(NC(=O)Nc2ccc(N(C)C)nc2)c1 [Example 71]",
    "Response (%) OX1R": "<5%"
  },
  {
    "molecule": "COc1ccc(-c2cccc(C(=O)N(C)C)c2)cc1S(=O)(=O)Nc1cccc(NC(=O)Nc2cccc(C)c2)c1 [Example 38]",
    "Response (%) OX1R": "<5%"
  },
  {
    "molecule": "COc1ccc(-c2cccc(C(=O)N(C)C)c2)cc1S(=O)(=O)Nc1cccc(NC(=O)Nc2ccc(N)cc2)c1 [Example 55]",
    "Response (%) OX1R": "<5%"
  }
]

* * *

Entries and their Response (%) OX1R values follow.
- system: human OX1R (Homo sapiens, UniProt O43613)
- Construct: expressed in transfected cells; host or cells: CHO (Chinese hamster ovary) cells, line CHOOX1R, co-expressing NFAT-luciferase
- test_method_notes: Agonist activity against OX1R: intracellular calcium (Fura-2AM, FDSS7000) in CHOOX1R cells
- Assay type: cell-based
- assay_conditions: 1.0 μM test compound; relative to orexin-A as full agonist (100%)
- Experimental: Evaluation of Agonist Activity Against OX1R and OX2R […] (As used herein, Response in Table 21 to Table 27 is a value obtained by dividing the agonist activity value, when the test compound is evaluated with orexin-A as a full-agonist (maximum value of agonist activity: 100%), at 10 μM, 1.0 μM, 0.1 μM by the agonist activity value of orexin-A.)
readout_label: Response (%) OX1R

[
  {
    "smiles_repr": "COc1ccc(NC(=O)Nc2cccc(NS(=O)(=O)c3cc(-c4cccc(C(=O)N(C)C)c4)ccc3OC)c2)cc1",
    "readout_label": "Response (%) OX1R",
    "op": "=",
    "experimental_value": 6
  },
  {
    "smiles_repr": "COc1ccc(-c2cccc(C(=O)N(C)C)c2)cc1S(=O)(=O)Nc1cccc(NC(=O)Nc2cccc(NC(=O)OC(C)(C)C)c2)c1",
    "readout_label": "Response (%) OX1R",
    "op": "=",
    "experimental_value": 8
  },
  {
    "smiles_repr": "COc1ccc(-c2cccc(C(=O)N(C)C)c2)cc1S(=O)(=O)Nc1cccc(NC(=O)NCc2ccccc2)c1",
    "readout_label": "Response (%) OX1R",
    "op": "=",
    "experimental_value": 6
  },
  {
    "smiles_repr": "COc1ccc(Nc2cccc(NS(=O)(=O)c3cc(-c4cccc(C(=O)N(C)C)c4)ccc3OC)c2)cc1",
    "readout_label": "Response (%) OX1R",
    "op": "<",
    "experimental_value": 5
  },
  {
    "smiles_repr": "COc1ccc(-c2cccc(C(=O)N(C)C)c2)cc1S(=O)(=O)Nc1cccc(NC(=O)c2cccc3ccccc23)c1",
    "readout_label": "Response (%) OX1R",
    "op": "=",
    "experimental_value": 6
  },
  {
    "smiles_repr": "COc1ccc(-c2cccc(C(=O)N(C)C)c2)cc1S(=O)(=O)Nc1cccc(NC(=O)Nc2cccnc2)c1",
    "readout_label": "Response (%) OX1R",
    "op": "=",
    "experimental_value": 6
  },
  {
    "smiles_repr": "COc1ccc(-c2cccc(C(=O)N(C)C)c2)cc1S(=O)(=O)Nc1cccc(NC(=O)Nc2ccc(NC(=O)OC(C)(C)C)cc2)c1",
    "readout_label": "Response (%) OX1R",
    "op": "<",
    "experimental_value": 5
  },
  {
    "smiles_repr": "COc1ccc(-c2cccc(C(=O)N(C)C)c2)cc1S(=O)(=O)Nc1cccc(NC(=O)Nc2ccc(NC(=N)N)cc2)c1",
    "readout_label": "Response (%) OX1R",
    "op": "<",
    "experimental_value": 5
  },
  {
    "smiles_repr": "COc1ccc(-c2cccc(C(=O)N(C)C)c2)cc1S(=O)(=O)Nc1cccc(NC(=O)c2cccc(C)c2)c1",
    "readout_label": "Response (%) OX1R",
    "op": "<",
    "experimental_value": 5
  },
  {
    "smiles_repr": "COc1ccc(-c2cccc(C(=O)N(C)C)c2)cc1S(=O)(=O)Nc1cccc(NC(=O)c2ccccc2N(C)C)c1",
    "readout_label": "Response (%) OX1R",
    "op": "=",
    "experimental_value": 7
  },
  {
    "smiles_repr": "COc1ccc(-c2cccc(C(=O)N(C)C)c2)cc1S(=O)(=O)Nc1cccc(NC(=O)c2ccccc2C)c1",
    "readout_label": "Response (%) OX1R",
    "op": "<",
    "experimental_value": 5
  },
  {
    "smiles_repr": "COc1ccccc1CNc1cccc(NS(=O)(=O)c2cc(-c3cccc(C(=O)N(C)C)c3)ccc2OC)c1",
    "readout_label": "Response (%) OX1R",
    "op": "<",
    "experimental_value": 5
  },
  {
    "smiles_repr": "COc1cccc(CNc2cccc(NS(=O)(=O)c3cc(-c4cccc(C(=O)N(C)C)c4)ccc3OC)c2)c1",
    "readout_label": "Response (%) OX1R",
    "op": "=",
    "experimental_value": 10
  },
  {
    "smiles_repr": "COc1ccc(-c2cccc(C(=O)N(C)C)c2)cc1S(=O)(=O)Nc1cccc(NC(=O)Nc2ccccc2N(C)C)c1",
    "readout_label": "Response (%) OX1R",
    "op": "<",
    "experimental_value": 5
  }
]

These entries and their values trace back to patent US10351522B2.
